Test system: U2OS
Test: Multiplex assay against U2OS
Type: toxicity, cell-based
Conditions: human, 12 h, 1 µM, compound concentration 1 uM, replicate 2
Below, each entry is listed with its recorded Population Mitotic Cells (%).
measured.parameter: Population Mitotic Cells (%)

1) COc1cc2nc(N3CCN(C(=O)COc4c(OC)cccc4C(C)C)CC3)nc(N)c2cc1OC.Cl.Cl = 66
2) Cc1cc(-c2ccc3c(c2)CC[C@H]3N2CC3(CCN(C(=O)Cc4cn5cc(C)sc5n4)CC3)C2)ncn1 [PF-5190457] = 36
3) Nc1nc(CC(=O)Nc2ccc(CCNC[C@H](O)c3ccccc3)cc2)cs1 [MIRABEGRON] = 0
4) CCn1c(-c2nc3cc(C(=O)N4CCCC(N)C4)ccc3n2C)cc2ccccc21.Cl (centres undefined) = 0
